Target: His-tagged recombinant human Gal-3 (hGal-3) (Homo sapiens (Human), UniProt P17931)
Sequence (P17931 whole entry): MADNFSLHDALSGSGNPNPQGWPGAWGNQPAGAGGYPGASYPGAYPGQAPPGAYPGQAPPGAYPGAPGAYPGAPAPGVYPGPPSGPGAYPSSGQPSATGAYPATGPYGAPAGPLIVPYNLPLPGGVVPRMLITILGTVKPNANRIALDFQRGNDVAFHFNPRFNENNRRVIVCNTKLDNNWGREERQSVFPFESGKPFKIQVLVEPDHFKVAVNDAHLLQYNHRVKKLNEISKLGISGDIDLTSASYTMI
Experiment: Gal-3 HTRF assay (His-tagged hGal-3 binding to B-ASF);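 also: compounds preincubated 30 min with hGal-3, then 1 h with B-ASF, detection via terbium anti-His antibody and streptavidin d2. Control with B-ASF counts as full signal, omitting B-ASF as background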
Conditions: HTRF, hGal-3 15 nM, B-ASF 15 nM; read-out: hGal-3 IC50
Could you please report measured pIC50 for the items listed next?
One number for each entry, as −log10 of the molar value.

Field: example entries. Status: answers known.
{"entry_smiles": "CC(C)Oc1ccc(-n2cnnc2[C@@H]2O[C@H](CO)[C@H](O)[C@H](n3cc(-c4cc(F)c(F)c(F)c4)nn3)[C@H]2O)cc1", "pIC50": 6.15}
{"entry_smiles": "Cc1nnc([C@@H]2O[C@H](CO)[C@H](O)[C@H](n3cc(-c4ccc(Br)c(F)c4)nn3)[C@H]2OCC(F)F)n1-c1cc(Cl)ccc1C(F)(F)F", "pIC50": 7.70}
{"entry_smiles": "Cc1nc([C@@H]2O[C@H](CO)[C@H](O)[C@H](n3cc(-c4ccc(Cl)c(Cl)c4)nn3)[C@H]2O)n(-c2cc(Cl)ccc2C(F)(F)F)n1", "pIC50": 7.48}
{"entry_smiles": "Cc1nc2cccc(-n3cnnc3[C@@H]3O[C@H](CO)[C@H](O)[C@H](n4cc(-c5cc(F)c(F)c(F)c5)nn4)[C@H]3O)c2s1", "pIC50": 6.59}
{"entry_smiles": "OC[C@H]1O[C@@H](c2nncn2-c2cc(Cl)cc(Cl)c2)[C@H](O)[C@@H](n2cc(-c3cc(F)c(F)c(F)c3)nn2)[C@H]1O", "pIC50": 7.10}

Input line: Consider the compound Cc1ncc(-c2cccc(-n3ncnc3[C@@H]3O[C@H](CO)[C@H](O)[C@H](n4cc(-c5cc(F)c(F)c(F)c5)nn4)[C@H]3O)c2)s1 and give its recorded pIC50.
Output line: 6.52
